Catalogue of compounds with associated pIC50
# Tested on: WT Mabs ATCC 19977
# PROTOCOL DETAILS: Biofilm formation assay in SCFM (crystal violet staining)
# Format: cell-based, M. abscessus subsp. abscessus
# TEST PARAMETERS: Mycobacteroides abscessus, ATCC19977, 120 h; 5 d of growth in SCFM, poly-D-lysine-coated plates; read-out: IC50 values (required to inhibit 50% of biofilm formation)
pIC50: −log10 of the molar value.
PARAMETER MEASURED: pIC50

In [3]: df
Out[3]:
                  compound_structure_string  reported_measurement
0  CC(C)(N)CNC(=O)C[C@H]1CC[C@]2(CC1)OO[C@]1(O2)C2CC3CC(C2)CC1C3          5.80 to 6.10
1  c1cc([C@H]2CC[C@]3(CC2)OO[C@]2(O3)C3CC4CC(C3)CC2C4)ccc1OCCN1CCOCC1          5.80 to 6.10
2  C[C@@H]1CC[C@H]2[C@@H](C)C(=O)O[C@@H]3O[C@@]4(C)CC[C@@H]1[C@]32OO4          5.80 to 6.10
